All figures here come from PubChem BioAssay.

Tested on: XIP peptide (Xip251-270)
Assay: small-molecule binders of XIP peptide, primary screen, biochemical, small-molecule microarray, fluorescence 635/667 nm, 0.5 µg/mL protein (AID 1183)
Settings: small-molecule microarray binding, fluorescence 635 nm; higher = more signal
# binarize composite z-score: threshold 0.7 inclusive, high side label 1, low side label 0

molecule | classification
CN(C)CCCCNC(=O)[C@H]1C[C@H]2C(=O)N[C@@H](Cc3ccccc3)C(=O)N2[C@H]1c1ccc(O)cc1 | label 0
C=CCN1C(=O)[C@]2(O[C@H](CCO)[C@@H]([Si](C)(C)c3ccc(OC)cc3)[C@@H]2C)c2cc(NC(=O)[C@H](C)O)ccc21 | label 1
C=C(CCCC)/C(=C/C[C@H](OC(C)=O)c1ccc(CO)o1)c1cnc2ccccc2c1 | label 0
C=CCC(OC(C)=O)[C@@H]1[C@@H](N(Cc2cccc3ccccc23)C(=O)c2ccc(C)cc2)c2cc(OCCCO)ccc2N1C(=O)Cc1ccc(OC)cc1 (some centres not stated) | label 0
Cc1ccc(S[C@]2(C(=O)NC3CC3)CC(=O)N(Cc3ccccc3)[C@@H]2c2ccc(CO)cc2)cc1 | label 0
COc1cc(C(O)C2C=CC3C(=O)N(c4ccccc4)C(=O)C3N2Nc2ccc(C#N)cc2)cc(OC)c1OC (configuration not stated) | label 1
C=C(COC)/C(=C/C[C@H](OC(=O)c1ccncc1)c1cccc(OCCO)c1)c1cc(C(=O)OC)ccc1OC | label 0
C=CC(COC(C)=O)NS(=O)(=O)c1ccc(Br)cc1 (configuration not stated) | label 0
CCOC(=O)C1=CCC(c2ccc([N+](=O)[O-])cc2)N(S(=O)(=O)c2ccc(C)cc2)C1 (configuration not stated) | label 0
C=CC[C@@]1(C(=O)NCC(O)CO)N=C(c2ccc(OCCCO)cc2)O[C@@H]1c1ccccc1N=[N+]=[N-] (some centres not stated) | label 1
COCCOC(=O)N1C(=O)[C@@]2(c3ccccc31)[C@H](c1ccc(O)cc1)N1[C@H](c3ccccc3)[C@H](c3ccccc3)OC(=O)[C@H]1[C@@H]2C(=O)N1CCc2cc(OC)c(OC)cc2C1 | label 1
COCC(=C=CC[C@H](O)c1ccc(OCCO)cc1)C[C@H](O)c1cc(Cl)cc(Cl)c1O | label 0
COC(=O)C(CC#Cc1ccc2c(c1)[C@]1(C(=O)N2)[C@H](c2ccc(OCCO)cc2)N2[C@H](c3ccccc3)[C@H](c3ccccc3)OC(=O)[C@H]2[C@@H]1C(=O)NC[C@H](O)c1ccccc1)C(=O)OC | label 1
[N-]=[N+]=Nc1ccccc1[C@H]1OC(c2ccc(OCCCO)cc2)=N[C@@]1(CCS(=O)(=O)c1ccccc1)C(=O)O | label 1
COC(=O)[C@@]1(Cc2ccccc2)[C@H]2c3cc(C(=O)N(C)C)n(Cc4c(-c5ccccc5)noc4C)c3C[C@H]2CN1C(=O)c1ccccc1 | label 0
NCCCCCNC(=O)[C@H]1C[C@H]2C(=O)NCC(=O)N2[C@H]1c1cccc(OCCO)c1 | label 1
COC(=O)C[C@@H]1C[C@H](C)[C@]2(O1)C(=O)N(Cc1ccccc1)c1ccc(NC(C)=O)cc12 | label 0
O=C(NCc1ccccc1)[C@]1(CCS(=O)(=O)c2ccccc2)N=C(c2ccc(OCCCO)cc2)O[C@@H]1c1ccccc1 | label 0
CCCC[C@H]1OB(O)C[C@H]2C1=C(C)C[C@H]1C(=O)N(Cc3ccccc3)C(=O)[C@H]12 | label 1
O=C(CS)NCCCCCCNC(=O)[C@H]1C[C@H]2C(=O)NCC(=O)N2[C@H]1c1ccc(O)cc1 | label 1
NC(=O)NCC#Cc1ccc2c(c1)[C@]1(C(=O)N2)[C@H](C(=O)NC[C@H](O)c2ccccc2)[C@H]2C(=O)O[C@H](c3ccccc3)[C@H](c3ccccc3)N2[C@@H]1c1ccc(O)cc1 | label 0
C[C@H]1NC(=O)[C@H](Cc2ccccc2)NC(=O)[C@@]23C(=O)N[C@@H](Cc4ccccc4)C2[C@H](C)[C@@]2(C)O[C@H]2C3/C=C/C/C=C\CNC1=O (some centres not stated) | label 0
C=CCOC(=O)[C@@H]1[C@H]2C(=O)O[C@H](c3ccccc3)[C@H](c3ccccc3)N2[C@H](c2ccc(OCCOC(=O)[C@@H]3C[C@@H]4C(=O)N[C@@H](Cc5ccccc5)C(=O)N4[C@@H]3c3cccc(OCCO)c3)cc2)[C@@]12C(=O)Nc1ccc(I)cc12 | label 1
COc1ccc(C(O)C2C=CC3C(=O)N(C)C(=O)C3N2Nc2ccccc2)cc1OCc1ccccc1 (configuration not stated) | label 1
COCCOC(=O)N1C(=O)[C@@]2(c3cc(C#CCC(C(=O)OC)C(=O)OC)ccc31)[C@H](C(=O)N1CCCCCCC1)[C@H]1C(=O)O[C@H](c3ccccc3)[C@H](c3ccccc3)N1[C@@H]2c1ccc(OCCO)cc1 | label 1
COC(=O)c1ccc(C(O)C2C=CC3C(=O)N(c4ccccc4)C(=O)C3N2Nc2ccc(C#N)cc2)o1 (configuration not stated) | label 0

* * *

Target: Pro-neuregulin-1, membrane-bound isoform (Homo sapiens)
Assay: NRG1 binders on small-molecule microarrays, primary screen, psychiatric disease protein project, biochemical, small-molecule microarray, fluorescence 635/667 (AID 1075);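 note: score combines 667 nm spot fluorescence with signal to noise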
Conditions: NRG1 binding, 635 nm fluorescence, higher = more signal

molecule | targetSystem | composite z-score
COC(=O)C1=CC(CCCO)=CC(C2CC2)N(Cc2sc3ccccc3c2Cl)C=C1C(=O)OC (stereo not drawn) | Pro-neuregulin-1, membrane-bound isoform (Homo sapiens) | 1.98
[N-]=[N+]=NCc1ccccc1C[C@]1(C(=O)NCC(O)CO)N=C(c2ccc(OCCCO)cc2)O[C@H]1c1ccccc1N=[N+]=[N-] (stereo partly drawn) | Pro-neuregulin-1, membrane-bound isoform (Homo sapiens) | 1.17
COC(=O)[C@@]1(Cc2ccccc2N=[N+]=[N-])COC(c2ccc(OCCCO)cc2)=N1 | Pro-neuregulin-1, membrane-bound isoform (Homo sapiens) | 1.24
O=C1c2ccccc2[C@@]2(Cc3ccccc3N(Cc3ccccc3)C2=O)[C@H](c2ccc(CO)cc2)N1C1CCCCC1 | Pro-neuregulin-1, membrane-bound isoform (Homo sapiens) | 0.662
COC(=O)[C@@]1(Cc2ccccc2)[C@H]2c3cc(C(=O)N4CCCC4)n(C)c3C[C@H]2CN1C(=O)c1ccccc1 | Pro-neuregulin-1, membrane-bound isoform (Homo sapiens) | 1.51
CC(=O)NCCCC[C@@H]1NC(=O)[C@@H]2C[C@H](C(=O)NCCCCCCNC(=O)CS)[C@H](c3ccc(O)cc3)N2C1=O | Pro-neuregulin-1, membrane-bound isoform (Homo sapiens) | 1.49
CN1C(=O)C2C=CC(C(O)c3ccccn3)N(Nc3ccccc3)C2C1=O (stereo not drawn) | Pro-neuregulin-1, membrane-bound isoform (Homo sapiens) | 0.838
CC(=CC1CCCCC1)[C@@H](NC(=O)c1ccc(C(F)(F)F)cc1)c1ccc(-c2ccccc2)cc1 | Pro-neuregulin-1, membrane-bound isoform (Homo sapiens) | 1.02

* * *

Experiment: compound binding in COS7 lysate, probe aLAP1, primary screen, cell lysate, small-molecule microarray (AID 1124);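 note: lysate comes from COS7 cells expressing LAP1 and is applied at 0.3 µg/mL; score merges spot fluorescence near 667 nm with signal-to-noise over triplicate slides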
Conditions: probe aLAP1, fluorescence, higher = more signal
Listed below: composite z-score values for each entry.
measuredProperty: composite z-score

chemicalStructure | measuredProperty | measuredValue
COCCOC(=O)N1C(=O)[C@@]2(c3cc(C#Cc4ccc(OC)cc4)ccc31)[C@H](C(=O)N1CCN(c3ncccn3)CC1)[C@H]1C(=O)O[C@H](c3ccccc3)[C@H](c3ccccc3)N1[C@@H]2c1ccc(O)cc1 | composite z-score | 0.232
Cc1ccc(S[C@]2(C(=O)O)CC(=O)N(C3Cc4ccccc4C3)[C@@H]2c2ccc(CO)cc2I)cc1 | composite z-score | 0.672
COCCOC(=O)N1C(=O)[C@@]2(c3cc(C#CCNC(N)=O)ccc31)[C@H](c1ccc(O)cc1)N1[C@H](c3ccccc3)[C@H](c3ccccc3)OC(=O)[C@H]1[C@@H]2C(=O)NC[C@H](O)c1ccccc1 | composite z-score | 0.608
COc1ccc([Si](C)(C)[C@H]2[C@H](CC(=O)N(CCO)Cc3ccccc3)O[C@@]3(C(=O)N(Cc4cccc(N5CCC5=O)c4)c4ccccc43)[C@@H]2C)cc1 | composite z-score | 0.782
O=C1O[C@H](c2ccccc2)[C@H](c2ccccc2)N2[C@H]1[C@@H](C(=O)N1CCN(c3ncccn3)CC1)[C@]1(C(=O)Nc3ccccc31)[C@H]2c1ccc(OCCO)cc1 | composite z-score | 0.151
C=CCNC(=O)[C@H]1[C@@H]2C(=O)O[C@@H](c3ccccc3)[C@@H](c3ccccc3)N2[C@@H](c2ccc(O)cc2)[C@]12C(=O)N(C(=O)OCCOC)c1ccc(C#CCCO)cc12 | composite z-score | 0.881
O=C1C=CC(=O)[C@@H]2CC(COc3ccccc3)=C3[C@@H](CCc4ccccc4)OB(O)C[C@@H]3[C@H]12 | composite z-score | -0.17
O=C1O[C@@H](c2ccccc2)[C@@H](c2ccccc2)N2[C@@H](c3ccc(O)cc3)[C@]3(C(=O)Nc4ccc(C#CC5(O)CCCCCC5)cc43)[C@@H](C(=O)N3CCCCCCC3)[C@H]12 | composite z-score | 0.894
CC(C)N1C(=O)[C@@]2(c3ccc([N+](=O)[O-])cc3)CC(=O)N(CC34CC5CC(CC(C5)C3)C4)[C@@H]2c2ccc(CO)cc21 | composite z-score | 0.632
COCCOC(=O)N1C(=O)[C@@]2(c3cc(C#CCC(C(=O)OC)C(=O)OC)ccc31)[C@H](C(=O)N1CCCCCCC1)[C@H]1C(=O)O[C@H](c3ccccc3)[C@H](c3ccccc3)N1[C@@H]2c1ccc(OCCO)cc1 | composite z-score | 1.06
COCC(=C=CC[C@@H](O)c1ccc(CO)o1)CCO | composite z-score | 1.51
O=C1O[C@H](c2ccccc2)[C@H](c2ccccc2)N2[C@H]1[C@@H](C(=O)Nc1nc3ccccc3s1)[C@]1(C(=O)Nc3ccccc31)[C@H]2c1ccc(O)cc1 | composite z-score | 0.293
C=CC(=C)C1=CCO[C@@H]1[C@H]1CCCN1S(=O)(=O)c1ccccc1[N+](=O)[O-] | composite z-score | -0.262
